- Test system: Plasmodium falciparum
- method: GSK_TCMDC: Inhibition of Plasmodium falciparum 3D7 in whole red blood cells, using parasite LDH activity as an index of growth. Test compounds present at 2uM
- Format: functional
measurementType: Inhibition (%)
Please give a number only; it is taken to be in %.

Item: Cc1cccc(C(=O)Nc2ccnc(N(C)C3CCN(Cc4cccc(O)c4)CC3)c2)c1.O=C(O)C(F)(F)F | Inhibition: 89

Item: Br.Cc1ccccc1C1=CCN(CCCN2c3ccccc3Sc3ccc(Cl)cc32)CC1 | Inhibition: 90

Item: Cc1cc(N)nc2ccc(CNCCc3ccccc3Br)cc12.Cl | Inhibition: 100

Item: OC(CNCc1ccccc1OC(F)F)c1cccc(C(F)(F)F)c1 (centres undefined) | Inhibition: 97

Item: CC(Cc1ccc(OCCCCOc2ccccc2)cc1)NCCc1ccccc1Cl (centres undefined) | Inhibition: 97

Item: C/C=C1\CN2CC[C@H]1C[C@H]2[C@H](O)c1ccnc2ccc(OC)cc12.O=S(=O)(O)O | Inhibition: 99

Item: COC(=O)c1ccc(C[C@@H](C)NC[C@H](O)c2cccc(C(F)(F)F)c2)cc1.Cl | Inhibition: 97

Item: O=C(/C=C/c1ccc(Cl)c(Cl)c1)N1CCC(CN2CCC(c3cn(CC(=O)N4CCCCC4)c4ccccc34)CC2)CC1.O=C(O)C(F)(F)F | Inhibition: 100

Item: CC[C@H]1CN2CC[C@H]1C[C@H]2[C@H](O)c1cc(-c2ccc(F)cc2)nc2ccc(OC)cc12.Cl | Inhibition: 99

###

Task for the reader: assign each of the following molecules its reported Inhibition.
- Test system: Plasmodium falciparum
- method: GSK_TCMDC: Inhibition of Plasmodium falciparum Dd2 in whole red blood cells, using parasite LDH activity as an index of growth. Test compounds present at 2uM
- Type: functional
Please give a number only; it is taken to be in %.

Reading of Inhibition for Cl.N=c1c2c(n(Cc3ccc(Cl)cc3Cl)c3c1CCC3)CCCC2 with Plasmodium falciparum: 73

Reading of Inhibition for CN(C)c1cccc(NC(=O)N[C@H]2N=C(c3ccccc3)c3ccccc3N(CC(=O)N3CCCC3)C2=O)c1 with Plasmodium falciparum: 98

Reading of Inhibition for O=C(/C=C/c1ccc(Cl)c(Cl)c1)N1CCC(CN2CCC(c3c(-c4ccccc4)[nH]c4ccccc34)CC2)CC1 with Plasmodium falciparum: 99

Reading of Inhibition for COC(=O)/C=C/c1ccc(CC(C)NCC(O)c2cccc(C(F)(F)F)c2)cc1.Cl (stereo not drawn) with Plasmodium falciparum: 93

Reading of Inhibition for CN1CC=C(c2c[nH]c3ccc(C(=O)c4nccs4)cc23)CC1 with Plasmodium falciparum: 73

Reading of Inhibition for Fc1ccc(N(c2nc(-c3cc(F)cc(C(F)(F)F)c3)cs2)C2CCNCC2)cc1.O=C(O)C(F)(F)F with Plasmodium falciparum: 10

Reading of Inhibition for O=C(NC1CCC(CN2CCC(c3c[nH]c4ccccc34)CC2)CC1)c1cc(-c2cccc(Cl)c2)n(-c2ccc(Cl)cc2Cl)n1 (stereo not drawn) with Plasmodium falciparum: 25

Reading of Inhibition for O=C(/C=C/c1ccc(Cl)c(Cl)c1)N1CCC(CN2CCC(c3c[nH]c4ccc(NS(=O)(=O)c5cccs5)cc34)CC2)CC1 with Plasmodium falciparum: 100

###

- Tested on: HepG2
- method: GSK_TCMDC: Percent inhibition of human HepG2 cell line. Test compounds present at 10uM.
- Assay type: functional
measurementType: Inhibition
Just so you know, I need the unit written after the number.

Item: Br.COC(=O)c1ccc(CC(C)NCC(O)c2cccc(SC(F)(F)F)c2)cc1 (centres undefined) | Inhibition: 7%

Item: Cc1[nH]c2ccccc2c1C1=CCN(CCCCCNC(=O)/C=C/c2ccc(Cl)c(Cl)c2)CC1 | Inhibition: 28%

Item: COc1ccc(NC(=S)NC(NC(=O)CF)C(Cl)(Cl)Cl)cc1[N+](=O)[O-] (centres undefined) | Inhibition: 66%

Item: CC[C@H]1CN2CC[C@@H]1C[C@H]2[C@H](O)c1ccnc2ccc(Cl)cc12.Cl | Inhibition: 0%

Item: Cl.c1ccc2c(NCCCCCCCCCNc3c4ccccc4nc4ccccc34)c3ccccc3nc2c1 | Inhibition: 99%

Item: O=C(Nc1ccc(Cl)c(Cl)c1)N1CCC(CN2CCC(c3c[nH]c4ccccc34)CC2)CC1 | Inhibition: 46%

Item: Br.COc1ccc(C[C@@H](C)NC[C@H](O)c2cccc(Cl)c2)cc1F | Inhibition: 2%

Item: CC[C@H]1CN2CC[C@H]1C[C@H]2[C@H](O)c1cc(-c2ccc(SC)cc2)nc2ccc(OC)cc12.Cl | Inhibition: 9%

Item: Cc1ccc(CC(C)NC[C@H](O)c2cccc(Cl)c2)cc1.Cl (some centres undefined) | Inhibition: 15%

Each recorded value in this set is attributed to ChEMBL document CHEMBL1157539.
